experiment: NCI Yeast Anticancer Drug Screen. Data for the sgs1 strain (AID 173);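 further: 0% = growth of vehicle-only control cultures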
setup-conditions: S. cerevisiae sgs1 mutant, at 11.0 µM
The panel holds about 79,000 compounds, 15% with a hit somewhere; the sample as a whole holds those more often. Active and inactive are the calls of the source. No stated cut-off is given here; in the data, active means growth inhibition above about 70%; inactive means the rest.
Labels: True = active, False = inactive

{"columns": ["compound", "label-value"],
 "data": [
  ["O=[N+]([O-])c1ccc(N/N=C/Cc2ccccc2)c([N+](=O)[O-])c1", "False"],
  ["Oc1cccc2cc(Cl)cnc12", "False"],
  ["c1ccc2cc(NCNc3ccc4ccccc4c3)ccc2c1", "False"],
  ["CCOC(=O)C1=C(C)NC(C)=C(C(=O)OCCNC(=O)c2ccc(N=[N+]=[N-])cc2)C1c1ccccc1C(F)(F)F (stereo unspecified)", "False"],
  ["CCOC(=O)C(Br)C(Br)c1ccccc1Cl (stereo unspecified)", "True"],
  ["Cc1ccc(NCCNCCO)c2c(=O)c3cc(O)ccc3sc12", "False"],
  ["Clc1ccc2c(c1)N(CCCN1CCCC13CCCCC3)c1ccccc1S2", "False"],
  ["O=P(NC1CCCCC1)(OCc1ccccc1)OCc1ccccc1", "False"],
  ["COC1CCC(O)C(/C=C/[N+](=O)[O-])C1 (stereo unspecified)", "True"],
  ["COC(=O)C1=C(C(=O)OC)C(C(=O)OC)C(C(=O)OC)C(C(=O)OC)(C(=O)OC)C(C(=O)OC)=C1C(=O)OC (stereo unspecified)", "False"],
  ["CC(/C=C/c1ccccc1)=N\\NC(N)=S", "False"]
]}

---

Here the recorded growth inhibition is given for each entry.
experiment: NCI Yeast Anticancer Drug Screen. Data for the sgs1 strain (AID 173);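 further: 0% = growth of vehicle-only control cultures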
setup-conditions: S. cerevisiae sgs1 mutant, at 100.0 µM, hits give high values
The panel holds about 79,000 compounds, 15% with a hit somewhere; the sample as a whole holds those more often.

{"columns": ["molecule", "u", "growth inhibition"],
 "data": [
  ["O=C(c1ccc([N+](=O)[O-])cc1)C1N=NCC1c1ccccc1 (configuration not stated)", "%", 78],
  ["CC(=O)OCC(C)Cc1cc2c(cc1Br)OCO2 (configuration not stated)", "%", 78],
  ["COc1ccc(C(=O)C(CN(C)C)CN(C)C)cc1", "%", 78],
  ["Oc1ccc(-c2nc(-c3ccc(F)cc3)c(-c3ccc4ccccc4n3)[nH]2)cc1", "%", 90],
  ["N=C1N=Nc2nc(C3(c4nc5n(c4O)C(=N)N=N5)Cc4ccccc4C3=O)c(O)n21 (configuration not stated)", "%", 95],
  ["Oc1[nH]c2ccccc2c1N=NC(=S)N1CCCCC1", "%", 99],
  ["O=C(NO)Nc1cc(Cl)cc(Cl)c1", "%", 98],
  ["CC(=O)SC(C[N+](=O)[O-])c1ccccc1 (configuration not stated)", "%", 99],
  ["COc1cc2ccnc(-c3c4ccccc4c(N)c4c(OC)c(OC)ccc34)c2cc1OC", "%", 70],
  ["O=[N+]([O-])c1cc(Cl)cnc1Br", "%", 82],
  ["Cc1ccc(CC2(OCCN(C)C)CCC(C(C)(C)C)CC2)cc1 (configuration not stated)", "%", 99],
  ["O=C1c2cccnc2C(=O)C2C3C=CC(C3)C12 (configuration not stated)", "%", 98]
]}
